- system-tested: GST-tagged truncated human mutant G2019S LRRK2 (Homo sapiens (Human), UniProt Q5S007, G2019S)
- Sequence (Q5S007 970-2527 G2019S): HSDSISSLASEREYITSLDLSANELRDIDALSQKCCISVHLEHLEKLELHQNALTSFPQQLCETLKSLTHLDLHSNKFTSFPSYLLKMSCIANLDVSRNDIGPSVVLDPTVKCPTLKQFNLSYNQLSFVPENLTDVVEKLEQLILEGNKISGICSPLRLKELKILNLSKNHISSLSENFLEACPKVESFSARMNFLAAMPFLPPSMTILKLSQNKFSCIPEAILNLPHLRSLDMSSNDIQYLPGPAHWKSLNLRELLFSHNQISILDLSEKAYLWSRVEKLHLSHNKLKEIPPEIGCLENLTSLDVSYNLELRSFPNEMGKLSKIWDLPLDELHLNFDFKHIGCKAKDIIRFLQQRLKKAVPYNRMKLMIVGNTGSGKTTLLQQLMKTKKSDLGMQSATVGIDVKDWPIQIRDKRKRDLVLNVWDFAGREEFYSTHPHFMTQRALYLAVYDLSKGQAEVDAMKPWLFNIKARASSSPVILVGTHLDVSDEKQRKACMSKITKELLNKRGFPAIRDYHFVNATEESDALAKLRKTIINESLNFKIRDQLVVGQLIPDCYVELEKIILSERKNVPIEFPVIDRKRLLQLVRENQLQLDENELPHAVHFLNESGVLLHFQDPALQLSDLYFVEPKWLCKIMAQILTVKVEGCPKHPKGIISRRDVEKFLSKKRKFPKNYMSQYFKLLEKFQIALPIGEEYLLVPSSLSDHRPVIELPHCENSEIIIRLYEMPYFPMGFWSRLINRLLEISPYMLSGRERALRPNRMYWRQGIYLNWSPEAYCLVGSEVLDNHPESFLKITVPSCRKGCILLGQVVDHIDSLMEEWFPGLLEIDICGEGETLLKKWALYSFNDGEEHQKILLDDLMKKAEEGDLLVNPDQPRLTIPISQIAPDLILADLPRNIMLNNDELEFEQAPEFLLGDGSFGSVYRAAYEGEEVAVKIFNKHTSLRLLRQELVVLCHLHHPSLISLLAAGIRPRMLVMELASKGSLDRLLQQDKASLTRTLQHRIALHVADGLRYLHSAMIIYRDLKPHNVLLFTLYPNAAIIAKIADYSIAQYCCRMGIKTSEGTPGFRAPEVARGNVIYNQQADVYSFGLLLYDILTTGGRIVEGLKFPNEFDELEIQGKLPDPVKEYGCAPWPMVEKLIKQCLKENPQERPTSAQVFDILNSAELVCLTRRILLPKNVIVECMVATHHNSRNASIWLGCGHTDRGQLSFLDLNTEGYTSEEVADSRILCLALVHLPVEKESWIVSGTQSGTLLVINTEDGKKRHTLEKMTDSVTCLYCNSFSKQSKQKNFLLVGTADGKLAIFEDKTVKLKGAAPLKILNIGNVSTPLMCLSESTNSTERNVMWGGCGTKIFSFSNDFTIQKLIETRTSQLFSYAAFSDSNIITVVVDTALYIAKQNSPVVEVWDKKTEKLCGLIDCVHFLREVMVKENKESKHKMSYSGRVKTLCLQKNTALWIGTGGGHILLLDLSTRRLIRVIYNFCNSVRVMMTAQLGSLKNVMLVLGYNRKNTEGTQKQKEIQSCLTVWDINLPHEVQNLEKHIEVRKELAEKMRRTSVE
- run-description: LRRK2 G2019S Km ATP LanthaScreen Assay
- Type: biochemical
- run-conditions: 134 μM ATP (Km ATP); fluorescein-labeled LRRKtide substrate; mean IC50 values
pIC50: −log10 of the molar value.
Entries and their pIC50

{"compound": "C[C@@H]1CN(c2cc(-n3ncc4ccc([C@]5(C#N)CC56CC6)cc43)ncn2)CCN1C1CCOC1 (single isomer, unassigned) [Example 3.7-4]", "pIC50": 8.70}
{"compound": "CC1CN(c2cc(-n3ncc4ccc([C@]5(C#N)CC56CC6)cc43)ncn2)CC1C(C)(C)O (single isomer, unassigned) [Example 3.6-4]", "pIC50": 8.68}
{"compound": "Cc1nc(N2CC3(C(C)(C)O)CC2C3)cc(-n2ncc3ccc(C4(C#N)CC45CC5)cc32)n1 (single isomer, unassigned) [Example 2.4-2]", "pIC50": 9.22}
